B1: glmS ribozyme (parent)
chain: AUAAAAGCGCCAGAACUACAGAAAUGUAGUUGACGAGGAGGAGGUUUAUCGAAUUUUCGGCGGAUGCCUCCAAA

- Variants of: B1
- experiment_summary: self-cleavage kobs at 10000 uM GlcN6P; higher = faster cleavage; RNA array
- stated_conditions: with glucosamine-6-phosphate
Variants at the floor of the assay were thinned out.
Would you mind telling me the reported self-cleavage kobs at 10000 uM GlcN6P of each entry?
Report as a plain number; the unit s⁻¹ is understood.

Query block: Which self-cleavage kobs at 10000 uM GlcN6P value is on record for AUAAAAGCGCCCGAACUACAGAAAUGUAGUUGACGAGGAGGAGGUUUAUCGAAUUUUCGGCGGCUGCCUCCAAA [A12C A64C] ?
Result block: 0.000156

Query block: Which self-cleavage kobs at 10000 uM GlcN6P value is on record for AUAAAAGCGCCAGAACUACAGAAAUGUAGUUGACGAGGAGGAGGUUUAUCGGAUUUUCGGCGGAUGCCUGCAAA [A52G C70G] ?
Result block: 7.2e-05

Query block: Which self-cleavage kobs at 10000 uM GlcN6P value is on record for AUAAAAGCGCCAGAACUACAGAAAUGUAGUUGACGAGGAGGAGCUUUAUCGAAGUUUCGGCGGAUGCCUCCAAA [G44C U54G] ?
Result block: 0.000118

Query block: Which self-cleavage kobs at 10000 uM GlcN6P value is on record for AUAAAAGCGCCAGAACUACAGAAAUGUAGUUGACGAGGGGGAGGUUUAUCGAAUUUUCGGCGGAUUCCUCCAAA [A39G G66U] ?
Result block: 0.00451

Query block: Which self-cleavage kobs at 10000 uM GlcN6P value is on record for AUAAAAGCGCCAGAACUACAGAAAUGUAGUUGACGAGGAGGAGGUUUAUCGAAUUUCCGGCGGAUGUCUCCAAA [U57C C67U] ?
Result block: 6.33e-05

Query block: Which self-cleavage kobs at 10000 uM GlcN6P value is on record for AUAAAAGCGCCAGAACUACAGAAAUGUAGUUGACGAGGAGGAGGUUUAUGGAAUUUUCGGCGGCUGCCUCCAAA [C50G A64C] ?
Result block: 2.52e-05

Data provenance is the supplement of paper PMC7125110.
